Collected % damage Abutilon values appear next to each entry.
- Test system: weeds
- Protocol summary: Post-emergence test (greenhouse), damage to weeds
- Format: in vivo
- Condition info: 250 g of a.i./ha, after three weeks
- Procedure: Solvent: 5 parts by weight of acetone Emulsifier: 1 part by weight of alkylaryl polyglycol ether To product a suitable preparation of active compound, 1 part by weight of active compound is mixed with the stated amount of solvent, the stated amount of emulsifier is added and the concentrate is diluted with water to the desired concentration. […]
Please state the figure in %; there is no need to write the unit.

{"Molecule": "COc1nc(C)nc(NC(=O)NS(=O)(=O)c2c(C)cccc2OCCF)n1 [(2)]", "% damage Abutilon [%]": 100}
{"Molecule": "COc1cc(OC)nc(NC(=O)NS(=O)(=O)c2c(C)cccc2OCCF)n1", "% damage Abutilon [%]": 100}
{"Molecule": "CCCc1cccc(OCCF)c1S(=O)(=O)NC(=O)Nc1nc(OC)cc(OC)n1", "% damage Abutilon [%]": 100}
{"Molecule": "CCCc1cccc(OCCCF)c1S(=O)(=O)NC(=O)Nc1nc(OC)cc(OC)n1", "% damage Abutilon [%]": 100}

Next, consider the following molecule.
What does the record list as % damage Abutilon for COc1nc(C)nc(NC(=O)NS(=O)(=O)c2c(C)cccc2OCCF)n1 [(1)] ? 100

----------
Listed below: % damage Alopecurus values for each entry.
- Tested on: weeds
- Protocol summary: Pre-emergence test (greenhouse), damage to weeds
- Format: in vivo
- Condition info: 250 g of a.i./ha, after three weeks
Give the value in % but do not write % after it.

Recorded % damage Alopecurus for COc1nc(C)nc(NC(=O)NS(=O)(=O)c2c(C)cccc2OCCF)n1 [(2)] , please? 100

Query (molecule): COc1cc(OC)nc(NC(=O)NS(=O)(=O)c2c(C)cccc2OCCF)n1 ; field requested: % damage Alopecurus 100

Recorded % damage Alopecurus for CCCc1cccc(OCCCF)c1S(=O)(=O)NC(=O)Nc1nc(OC)cc(OC)n1 , please? 95

What does the data say about its % damage Alopecurus? Entry: CCCc1cccc(OCCF)c1S(=O)(=O)NC(=O)Nc1nc(OC)cc(OC)n1 100

// query % damage Alopecurus value for entry COc1nc(C)nc(NC(=O)NS(=O)(=O)c2c(C)cccc2OCCF)n1 [(1)] 100

----------
- Test system: weeds
- Protocol summary: Post-emergence test (greenhouse), damage to weeds
- Assay type: in vivo
- Condition info: 250 g of a.i./ha, after three weeks
Property label: % damage Alopecurus (%)
Provide only the numeric value, understood in %.

{"Compound": "COc1nc(C)nc(NC(=O)NS(=O)(=O)c2c(C)cccc2OCCF)n1 [(1)]", "Assayed system": "weeds", "Measurement units": "%", "% damage Alopecurus": 95}
{"Compound": "CCCc1cccc(OCCCF)c1S(=O)(=O)NC(=O)Nc1nc(OC)cc(OC)n1", "Assayed system": "weeds", "Measurement units": "%", "% damage Alopecurus": 90}
{"Compound": "COc1nc(C)nc(NC(=O)NS(=O)(=O)c2c(C)cccc2OCCF)n1 [(2)]", "Assayed system": "weeds", "Measurement units": "%", "% damage Alopecurus": 100}
{"Compound": "CCCc1cccc(OCCF)c1S(=O)(=O)NC(=O)Nc1nc(OC)cc(OC)n1", "Assayed system": "weeds", "Measurement units": "%", "% damage Alopecurus": 95}

Consider now this further compound.
# query: % damage Alopecurus of entry COc1cc(OC)nc(NC(=O)NS(=O)(=O)c2c(C)cccc2OCCF)n1 100
